- System: UACC-62 melanoma
- ASSAY OVERVIEW: NCI-60 one-dose screen, 48 h (100 = growth as untreated, 0 = no growth, -100 = all killed)
- RUN CONDITIONS: 10 µM unless noted
The panel holds about 83,000 compounds, 20% with a hit somewhere; the sample as a whole holds those more often.
READOUT NAME: growth (%)
One number for each entry, in %.

Working through the 6 compounds below one at a time, give growth for each.
1. COc1ccc(C2CC(n3ccnc3)c3cc(OC)c(OC)c(OC)c32)cc1O (stereo unspecified)
2. CC1(/C=C/c2ccc(-c3ccccc3)cc2)CCn2cnc3ncnc(c32)N1O (stereo unspecified)
3. ClC(Cl)c1nc(-c2ccccc2)n2nc(-c3ccccc3)cc2n1
4. CCN(CC)CCOc1ccc2c(-c3ccccc3)c(-c3ccc(OC)cc3)c(=O)oc2c1
5. C#CCOc1ccc2nc(CCl)c(Cl)c(Nc3cccc(C(F)(F)F)c3)c2c1
6. O=C(Nc1ncc(Cc2ccccc2)s1)c1sc2ccccc2c1Cl

1: 65.5; 2: 0.915; 3: 68.4; 4: -15; 5: 71.2; 6: 12.1

###

- Tested on: MDA-MB-231 breast
- ASSAY OVERVIEW: NCI-60 one-dose screen, 48 h (100 = growth as untreated, 0 = no growth, -100 = all killed)
- RUN CONDITIONS: 10 µM unless noted
Compounds without any hit were thinned out: in the full panel of roughly 83,000, 20% have a hit.
READOUT NAME: growth (%)
One number for each entry, in %.

Examples from the recorded data:
>>> number("Cc1nc2sc(C(=O)Nc3ccccn3)c(N)c2cc1C(C)O (stereo not drawn)")
59.1
>>> number("CC(=O)O[C@H]1CC[C@]2(C)[C@H]3CC=C4[C@@H]5CC(C)(C)CC[C@]5(C(=O)N5CCN(CCC#N)CC5)CC[C@@]4(C)[C@]3(C)CC[C@H]2C1(C)C")
48.5
>>> number("Cc1ccc(NC(=O)c2sc3nc(C)c(C(O)c4ccccc4)cc3c2N)cc1 (stereo not drawn)")
15.9
>>> number("CC/C(=C(\\c1ccc(Cl)cc1)c1ccc(OCCN2CCCCC2)cc1)c1ccc(O)cc1")
26.5
>>> number("O=C(O)c1cn(C2CC2)c2cc(N3CCN(C(=O)N4CCOCC4)CC3)c(F)cc2c1=O")
104
>>> number("COCCn1cc(-c2csc(-c3c[nH]c4ccccc34)n2)c2cccnc21")
35

Provide growth for all items below, preserving their order.
1. CC(=O)Nc1sc2c(c1-c1nc3ccccc3s1)CNC2
2. CC(=O)c1ccc(-n2cc(CN3CCN(c4cc5c(cc4F)c(=O)c(C(=O)O)cn5C4CC4)CC3)nn2)cc1
3. COC(=O)/C=C1/SC(=NCc2ccccc2)N(CCc2c[nH]c3ccccc23)C1=O
4. CC12OC(CC(O)C1O)n1c3ccccc3c3c4c(c5c6ccccc6n2c5c31)C(=O)N(CCN1CCCC1)C4=O (stereo not drawn)
5. O=C1Nc2ccccc2/C1=N/N1C(=O)CN(CCCl)C1=O
6. CC1SC(c2ccccc2O)N(NC(=O)CCC(=O)c2nc3ncccc3[nH]2)C1=O (stereo not drawn)
7. Cc1ccc2c(c1)=C/C(=C\c1cc(-c3ccccc3)[nH]c1O)C(=O)N=2

[21.9, 97.1, 91, 56.9, 117, 103, 50.6]

###

- Tested on: MOLT-4 leukemia
- ASSAY OVERVIEW: NCI-60 one-dose screen, 48 h
- RUN CONDITIONS: 10 µM unless noted
About 83,000 compounds went through this panel and 20% of them were active in at least one assay; those are over-represented in the sample as a whole. Calls of active or inactive are those of the source. Rule for the calls: active = growth percent below 10; inactive = the rest.
Lab note: assign the record to one of YES = active, NO = inactive

>>> class_label("CCn1cc(Cc2cc(C(=O)Nc3cc4cc(OC)c(OC)cc4c(C)n3)ccc2Cl)cn1")
"NO"

API: the following record is the query input.
# outcome recorded in this test, key = Cc1cc2oc(/C=C/c3ccccc3)cc(=O)c2c(C)c1Cl
NO

###

- System: UACC-257 melanoma
- ASSAY OVERVIEW: NCI-60 one-dose screen, 48 h (100 = growth as untreated, 0 = no growth, -100 = all killed)
- RUN CONDITIONS: 10 µM unless noted
About 83,000 compounds went through this panel and 20% of them were active in at least one assay; those are over-represented in the sample as a whole.
Classes by growth: low-valued: < 60%; mid-valued: ≥ 60% and < 90%; high-valued: ≥ 90%

As a guide, the following entries are already answered.
>>> class_label("CCCCCCCCCCCCCCCCCCOc1ccccc1CC(=O)NCC[N+](C)(C)C")
"high-valued"
>>> class_label("COc1ccc(-c2nc(SCC(=O)Nc3nc4ccc(C)cc4s3)[nH]c(=O)c2C#N)cc1OC")
"high-valued"
>>> class_label("Cn1cc(-c2csc(-c3cn(C)c4ccccc34)n2)c2cnccc21")
"low-valued"
>>> class_label("Cc1ccc(S(=O)(=O)OC[C@]23CCC(C)(C)C[C@H]2C2=CC[C@@H]4[C@@]5(C)CCCNC(C)(C)[C@@H]5CC[C@@]4(C)[C@]2(C)CC3)cc1")
"high-valued"

Lab log: CCOC(=O)c1cn2ncnc(Oc3ccc(NC(=O)NC4CC4)c(Cl)c3)c2c1C — assign growth category
high-valued

// return the class label for Cc1nc2sc(C(=O)Nc3ccccn3)c(N)c2cc1C(C)O (stereo unspecified)
mid-valued

Which bin should I file N#C/C(=C\c1ccc(-c2cccc(Cl)c2)o1)C(=O)Nc1ncc(Cc2ccc(Cl)cc2)s1 under?
low-valued

Pick a category. Item: O=S(Nc1ccccc1)c1ccc(Cl)cc1 (stereo unspecified)
mid-valued

Hi there! Could you help me figure out the category for O=C(NCCCCCCNC(=O)OCc1ccc2c(Cl)cc(Cl)c(O)c2n1)OCc1ccc2c(Cl)cc(Cl)c(O)c2n1 please?
low-valued

###

- Test system: OVCAR-5 ovarian
- ASSAY OVERVIEW: NCI-60 one-dose screen, 48 h (100 = growth as untreated, 0 = no growth, -100 = all killed)
- RUN CONDITIONS: 10 µM unless noted
The panel holds about 83,000 compounds, 20% with a hit somewhere; the sample as a whole holds those more often.
Would you kindly list growth for each of these compounds?
Give bare numbers, in %.

Example entries and their recorded answers appear below.
>>> number("N#Cc1c(-c2ccccc2)nc2c(c(-c3ccccc3)nn2-c2ccccc2)c1-c1ccc(N2CCCCC2)cc1")
102
>>> number("C=CC(CC(c1ccccc1)(c1ccccc1)c1ccccc1)N(CC)CC (stereo unspecified)")
72.5
>>> number("O=C(/C=C/c1ccccc1Cl)c1cccc(OCCCCOc2cccc(C(=O)/C=C/c3ccccc3Cl)c2)c1")
101

Working through the 3 compounds below one at a time, give growth for each.
1. CC(C)CCC[C@@H](C)[C@H]1CC[C@H]2[C@@H]3CC=C4c5sc(Nc6cc(C(F)(F)F)cc(C(F)(F)F)c6)nc5CC[C@]4(C)[C@H]3CC[C@]12C
2. CC1(C)CC(=O)C2=C(C1)C(c1ccc(Cl)cc1)n1ncc(C#N)c1N2 (stereo unspecified)
3. O=S(=O)(Nc1ccc2ccccc2c1)c1ccc(-c2cnc(C3CC3)o2)cc1

[106, 103, 48]

Dear colleague, could you please provide growth for the compounds listed below?
1. O=S(=O)(NCCNc1nccc(-c2c(-c3ccc(F)c(O)c3)nc3sccn23)n1)c1ccc(Cl)cc1
2. O=C(c1cccc(N2CCOCC2)n1)c1c[nH]c2ccccc12
3. N#Cc1nn(-c2cc(=O)[nH]c3ccc(Br)cc23)c(N)c1C#N
4. CCCCCCCCCCCCCCCCCCOc1ccccc1CC(=O)NCC[N+](C)(C)C
5. COc1ccc(C/C(C)=C(\c2ccc(Cl)cc2)c2ccc(OCCCN(C)C)cc2)cc1

1. 93.1
2. 105
3. 103
4. 14.6
5. 70.8

###

- System: OVCAR-5 ovarian
- ASSAY OVERVIEW: NCI-60 one-dose screen, 48 h (100 = growth as untreated, 0 = no growth, -100 = all killed)
- RUN CONDITIONS: 10 µM unless noted
This is part of a sample that, as a whole, favours compounds with a hit. Of some 83,000 tested, about 20% had one in any assay. Active and inactive are the calls of the source. How the source made its calls: active means growth percent below 10; inactive means the rest.
READOUT NAME: growth

The following molecules have reported results that may help.
>>> result("CCn1cc(C(=O)N/N=C/c2ccccc2)c(=O)c2cc(F)c(N3CCNC(C)C3)c(F)c21 (stereo not drawn)")
"67% (inactive)"
>>> result("C=C1C(=O)O[C@H]2[C@H]1CC/C(COC(=O)NCc1ccc(Cn3c(=O)sn(-c4ccc(I)cc4)c3=O)cc1)=C\\CC[C@@]1(C)O[C@@H]21")
"96.5% (inactive)"
>>> result("Nc1c(Br)cc2c(c1Br)Cc1cc([N+](=O)[O-])ccc1-2")
"112% (inactive)"

Return reported growth values for all items listed beneath this line.
1. Nc1nc2ccccc2c2c(=O)c3cc(Cl)ccc3sc12
2. CCC(C)(C)c1ccc(Nc2ccc(Nc3ccc(C(C)(C)CC)cc3)cc2)cc1
3. CSc1nc2ccc(C)cc2cc1/C=C1/C=C(c2ccccc2)NC1=O
4. Cc1c2cnccc2c(C)c2c1c1cc(CO)ccc1n2C
5. CN(C)CCn1c(=O)c2ccccc2n2nc3ccccc3c12
6. COc1cc(Cc2cc(OC)c(O)c(OC)c2)cc(OC)c1O
7. Clc1ccc(-c2cc(-c3ccccc3)nc(N3CCN(CCCNc4ccnc5cc(Cl)ccc45)CC3)n2)cc1

["97.9% (inactive)", "93.8% (inactive)", "63.9% (inactive)", "-27.5% (active)", "105% (inactive)", "112% (inactive)", "33.5% (inactive)"]

Batch: growth for all items listed.
1. COc1cc(/C=C/C(=O)N2CCN(C(=O)c3cc(OC)c(OC)c(OC)c3)CC2)ccc1OCCCOc1cc2c(cc1OC)C(=O)N1CCC[C@H]1C=N2
2. Nc1ncnc2c1N=C(c1ccc(Cl)cc1)CC(c1cccc(Nc3ccnc4cc(Cl)ccc34)c1)N2 (stereo not drawn)
3. Cc1ccc2c(c1)nc(C)n2-c1ncnc2c1CC(C)c1cc(O)ccc1N2C (stereo not drawn)
4. Oc1c(I)cc(I)cc1CN(Cc1ccccn1)Cc1ccccn1
5. CCn1cc(C(=O)N/N=C/c2cccc(F)c2)c(=O)c2cc(F)c(N3CCNC(C)C3)c(F)c21 (stereo not drawn)

1: 8.34% (active); 2: 111% (inactive); 3: 89% (inactive); 4: 55.1% (inactive); 5: 90.2% (inactive)

Hey, quick one: what's growth for each of these?
1. c1cc(OCCN2CCCCCC2)ccc1CNc1ccc2nc(CCC3CCCCC3)[nH]c2c1
2. CN1CCN(Cc2ccc(NC(=O)c3cncc(C#Cc4cnc(N)cc4C#N)c3)cc2C(F)(F)F)CC1

1. 79.5% (inactive)
2. 15.8% (inactive)

For every record below, what is its growth?
1. CC(=O)c1sc(-c2ccc(F)cc2)cc1O
2. CN(C)CCCn1c2c(c3cnccc3c1=O)C(=O)c1ccccc1-2
3. Clc1ccc2nn3c4ccccc4c(OCCN4CCOCC4)nc3c2c1
4. O=[N+]([O-])c1c(O)c(Cl)cc(Cl)c1Cl
5. CCn1cc(C(=O)O)c(=O)c2cc(F)c(N3CCN(CC(=O)Nc4ccccc4)C(C)C3)c(F)c21 (stereo not drawn)
6. O=C(/C=C/c1cn(-c2ccccc2)nc1-c1ccccc1)CCC(=O)NO
7. COc1ccc(Cl)cc1Nc1nc(C(F)(F)F)ccc1C(=O)N/N=C/c1ccc([N+](=O)[O-])cc1

["111% (inactive)", "0.0676% (active)", "93.2% (inactive)", "91.6% (inactive)", "98.3% (inactive)", "118% (inactive)", "4.96% (active)"]
